# System: IGROV1 ovarian
# Method notes: NCI tumour cell line growth inhibition, 48 h; in the data active means GI50 below about 0.43 µM; inactive means the rest
Classes used: yes (1) = active, no (0) = inactive

Query smiles: Cc1ccc(-[n+]2c3cc(N)c(C)cc3nc3cc(C)c(Nc4ccccc4)cc32)cc1
Group label: yes (1)
//
Query smiles: O=C(CCCCCCSc1nc(-c2ccccc2)cc(-c2ccc(Cl)cc2)n1)NO
Group label: no (0)
//
Query smiles: COc1cc2c3c(n(C)c(=O)c2cc1OC)-c1cc2c(cc1/C3=C\CCCCCN)OCO2
Group label: yes (1)
//
Query smiles: CCN(CC)CCOc1nc2ccc(OC)cc2c2c1-c1ccc(OC)cc1C2=O
Group label: yes (1)
//
Query smiles: COc1cc2c(cc1OC)C(=O)/C(=C/c1cccc(OCC(=O)c3ccccc3)c1)C2
Group label: no (0)
//
Query smiles: O=C(NNc1nc(Cl)nc(N2CCN(C(c3ccccc3)c3ccccc3)CC2)n1)c1ccccc1
Group label: no (0)
//
Query smiles: COc1ccc2nc(N/N=C(\C)c3ccccn3)cc(C)c2c1
Group label: yes (1)
//
Query smiles: COc1ccc(-c2nc3sc(C)cn3c2/C=C/C(=O)c2cc(OC)c(OC)c(OC)c2)cc1
Group label: no (0)
//
Query smiles: O=C1NCc2ccc3c(-c4cccc(Cl)c4)c[nH]c3c21
Group label: yes (1)

###

# System: RPMI-8226 leukemia
# Method notes: NCI tumour cell line growth inhibition, 48 h
Readout kind: GI50

Compound: Cn1ccnc1S/C(=C\C=C(C#N)C#N)c1ccc(Cl)cc1
Readout kind: GI50
Result: 19.2 µM

Compound: COc1ccc(N=C2CSc3nnc(-c4cc(F)c(Cl)cc4Cl)n3N2)cc1
Readout kind: GI50
Result: 1.41 µM

Compound: COc1cc(C2CC(c3ccc(C)cc3)=NN2C=O)ccc1Oc1ccnc2cc(Cl)ccc12 (stereo not given)
Readout kind: GI50
Result: > 50 µM

Compound: CCOc1cc2ncc(C#N)c(Nc3ccc(OCc4cccc(F)c4)c(Cl)c3)c2cc1NC(=O)CC1CCSS1 (stereo not given)
Readout kind: GI50
Result: > 25 µM

Compound: COc1ccc(-c2nn3ncccc3c2-c2ccnc(Nc3ccc(Cl)c(C(F)(F)F)c3)n2)cc1
Readout kind: GI50
Result: 8.28 µM

Compound: N=C1C(c2nc(-c3ccc(Br)cc3)cs2)=C(O)CN1Cc1cccnc1
Readout kind: GI50
Result: 2.88 µM

Compound: O=C(NNc1nc(Cl)nc(N2CCN(C(c3ccccc3)c3ccccc3)CC2)n1)c1ccccc1
Readout kind: GI50
Result: 3.79 µM

Compound: Cc1ccc(CNc2c3ccccc3nc3ccccc23)cc1
Readout kind: GI50
Result: 1.48 µM

Compound: O=C(Oc1ccc(Cl)cc1Cl)c1ccccc1Nc1ccnc(C(F)(F)F)c1
Readout kind: GI50
Result: 2.39 µM

Compound: COc1ccc2cc(C(=O)/C=C/c3cc(OC)c(OC)c(OC)c3)ccc2c1
Readout kind: GI50
Result: 6.84 µM

###

# System: HOP-62 NSCLC
# Method notes: NCI tumour cell line growth inhibition, 48 h; in the data active = GI50 below about 0.43 µM; inactive = the rest
Classes used: label 1 (active), label 0 (inactive)

Compound: C=C1C(=O)O[C@H]2[C@H]1CC/C(COC(=O)c1cc3cc(F)ccc3[nH]1)=C\CC[C@@]1(C)O[C@@H]21
Group label: label 0

Compound: COc1cc(O)c([C@@H]2C[C@H](CCc3ccc(O)cc3)O[C@H](c3ccc(O)cc3)C2)c(O)c1C(=O)/C=C/c1ccc(O)cc1
Group label: label 0

Compound: Cc1ccc(-[n+]2c3cc(N)c(C)cc3nc3cc(C)c(Nc4ccccc4)cc32)cc1
Group label: label 1

Compound: COc1ccc(-c2nn3ncccc3c2-c2ccnc(Nc3ccc(Cl)c(C(F)(F)F)c3)n2)cc1
Group label: label 0

Compound: O=C1NCc2ccc3c(-c4cccc(Cl)c4)c[nH]c3c21
Group label: label 1

Compound: COC(=O)N[C@H]1CCc2c(Br)c(OC)c(OC)c(OC)c2-c2ccc(SC)c(=O)cc21
Group label: label 1

Compound: O=C(CCCCCCSc1nc(-c2ccccc2)cc(-c2ccc(Cl)cc2)n1)NO
Group label: label 0

Compound: O=[N+]([O-])C1C(c2ccccc2)C12c1ccccc1-c1ccccc12 (stereo not drawn)
Group label: label 0

###

# System: A498 renal
# Method notes: NCI tumour cell line growth inhibition, 48 h

Molecule: COc1ccc2c(c1)OC(c1cccnc1)C(c1ccccc1)C2=O (stereo unspecified)
Uom: µM
Readout qualifier: >
TGI: 100

Molecule: CC(C)/C(Cl)=N/OC(=O)Nc1ccc(F)c(Cl)c1
Uom: µM
Readout qualifier: =
TGI: 33.3

Molecule: CCCCOC(=O)C(=O)C(CCC(=O)c1ccc(C)cc1)C(=O)C=C(C)C (stereo unspecified)
Uom: µM
Readout qualifier: >
TGI: 100

Molecule: Cc1cc2c(cc1Cl)Sc1nnc(Nc3ccccc3)n1S2(=O)=O
Uom: µM
Readout qualifier: =
TGI: 33.8

Molecule: Cc1ccc(N=Nc2c(C)nn(C(=O)CC(=O)Nc3ccccc3)c2C)cc1C
Uom: µM
Readout qualifier: >
TGI: 100

Molecule: Cc1cc(-c2ncc(CC(=O)Nc3ccc(-c4cnccn4)cn3)cc2C)ccn1
Uom: µM
Readout qualifier: =
TGI: 65.5

###

# System: HOP-92 NSCLC
# Method notes: NCI tumour cell line growth inhibition, 48 h; in the data active means GI50 below about 0.43 µM; inactive means the rest
Non-standard residues stand in square brackets, D forms with d. Residues, ends and D or L forms follow the SMILES beside them. *: point of attachment. ONb = O=[N+]([O-])c1ccc(CO*)cc1; AllylGly = C=CC[CH](N)C(=O)O; Boc = CC(C)(C)OC(=O)*
Classes used: 1 for active, 0 for inactive

Compound: O=[N+]([O-])C1C(c2ccccc2)C12c1ccccc1-c1ccccc12 (centres undefined)
Measurement target: HOP-92 NSCLC
Group label: 1
//
Compound: CCC[CH2][Sn-]([CH2]CCC)([CH2]CCC)[O]c1cc(Cl)c(Cl)cc1Cl
Measurement target: HOP-92 NSCLC
Group label: 1
//
Compound: N#Cc1cn(C2OC(CO)C(O)C2O)c2ncnc(N)c12 (centres undefined)
Measurement target: HOP-92 NSCLC
Group label: 1
//
Compound: COc1ccc(-c2nn3ncccc3c2-c2ccnc(Nc3ccc(Cl)c(C(F)(F)F)c3)n2)cc1
Measurement target: HOP-92 NSCLC
Group label: 0
//
Compound: CCN(CC)CCOc1nc2ccc(OC)cc2c2c1-c1ccc(OC)cc1C2=O
Measurement target: HOP-92 NSCLC
Group label: 0
//
Compound: CS(=O)(=O)CCNCc1nc(-c2ccc3ncnc(Nc4ccc(F)c(Cl)c4)c3c2)cs1
Measurement target: HOP-92 NSCLC
Group label: 0
//
Compound: COc1cc(O)c([C@@H]2C[C@H](CCc3ccc(O)cc3)O[C@H](c3ccc(O)cc3)C2)c(O)c1C(=O)/C=C/c1ccc(O)cc1
Measurement target: HOP-92 NSCLC
Group label: 0
//
Compound: COc1ccc2c(c1)[nH]c(=O)c1c3cc(C)c(C)cc3cn21
Measurement target: HOP-92 NSCLC
Group label: 0
//
Compound: CN(C)c1cccc2c(S(=O)(=O)N[C@H]3CC[C@H]4[C@@H]5CCc6cc(O)ccc6[C@H]5CC[C@]34C)cccc12
Measurement target: HOP-92 NSCLC
Group label: 0
//
Compound: COc1ccc2cc(C(=O)/C=C/c3cc(OC)c(OC)c(OC)c3)ccc2c1
Measurement target: HOP-92 NSCLC
Group label: 0
//
Compound: C=CCC(NC(=O)OC(C)(C)C)C(=O)NC(CCC(=O)OCc1ccc([N+](=O)[O-])cc1)C(N)=O (centres undefined) (Boc-[AllylGly]-Glu(ONb)-NH2; configuration not given here)
Measurement target: HOP-92 NSCLC
Group label: 0
//
Compound: C=C1C(=O)O[C@H]2[C@H]1CC/C(Cn1cc(CNC(=O)Cc3cn(C(=O)c4ccc(Cl)cc4)c4ccc(OC)cc34)nn1)=C\CC[C@@]1(C)O[C@@H]21
Measurement target: HOP-92 NSCLC
Group label: 0
//
Compound: O=C1NCc2ccc3c(-c4cccc(Cl)c4)c[nH]c3c21
Measurement target: HOP-92 NSCLC
Group label: 0
//
Compound: COc1cc2c3c(n(C)c(=O)c2cc1OC)-c1cc2c(cc1/C3=C\CCCCCN)OCO2
Measurement target: HOP-92 NSCLC
Group label: 0
//
Compound: N#Cc1c(Sc2ccccc2N)cccc1Sc1ccccc1N
Measurement target: HOP-92 NSCLC
Group label: 0
//
Compound: O=C(NNc1nc(Cl)nc(N2CCN(C(c3ccccc3)c3ccccc3)CC2)n1)c1ccccc1
Measurement target: HOP-92 NSCLC
Group label: 0
//
Compound: Cc1ccc(CNc2c3ccccc3nc3ccccc23)cc1
Measurement target: HOP-92 NSCLC
Group label: 0
//
Compound: COC(=O)N[C@H]1CCc2c(Br)c(OC)c(OC)c(OC)c2-c2ccc(SC)c(=O)cc21
Measurement target: HOP-92 NSCLC
Group label: 1
//
Compound: COc1ccc2c(c1)/C(=C\c1c(C)nc3sc(C)cn13)C(=O)N2C
Measurement target: HOP-92 NSCLC
Group label: 0
